Values compiled from paper PMC10146426.

# assayTarget: butyrylcholinesterase (BuChE, E.C. 3.1.1.8, from equine serum) (Equus caballus, UniProt P81908)
# Construct: butyrylcholinesterase (BuChE, E.C. 3.1.1.8, from equine serum); purchased Sigma-Aldrich (Steinheim, Germany); host or cells: equine serum (natural source)
# Sequence (P81908 whole entry): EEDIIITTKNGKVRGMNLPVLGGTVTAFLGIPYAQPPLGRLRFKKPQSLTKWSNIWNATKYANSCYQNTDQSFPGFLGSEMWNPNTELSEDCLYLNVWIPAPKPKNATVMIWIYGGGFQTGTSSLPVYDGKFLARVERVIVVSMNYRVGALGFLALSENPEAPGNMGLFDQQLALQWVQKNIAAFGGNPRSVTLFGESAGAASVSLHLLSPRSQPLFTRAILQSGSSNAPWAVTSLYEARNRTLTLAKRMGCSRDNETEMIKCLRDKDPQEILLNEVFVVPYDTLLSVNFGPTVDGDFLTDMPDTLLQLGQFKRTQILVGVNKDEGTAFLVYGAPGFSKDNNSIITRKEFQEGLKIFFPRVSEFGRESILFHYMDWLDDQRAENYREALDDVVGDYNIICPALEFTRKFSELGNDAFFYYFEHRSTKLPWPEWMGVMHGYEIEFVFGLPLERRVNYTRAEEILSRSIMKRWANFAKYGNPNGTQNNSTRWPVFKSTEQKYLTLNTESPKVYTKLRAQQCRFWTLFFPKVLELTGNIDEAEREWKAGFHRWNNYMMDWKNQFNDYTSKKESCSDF
# protocolText: BuChE inhibition (Ellman method)
# Format: biochemical
pIC50: −log10 of the molar value.
// pIC50 lookup, one value per entry

| compound | pIC50 |
| --- | --- |
| COc1cc(O)cc(O)c1C(=O)/C=C/c1ccccc1 | 4.12 |
| CN(C)C(=O)Oc1cccc([N+](C)(C)C)c1 [Neostygmine, neostigmine bromide, reference compound] | 7.52 |
| C=CC(C)(C)c1cc(/C=C/C(=O)c2ccc(O)cc2)c(OC)cc1O | 4.37 |

* * *

// IC50 lookup, one value per entry
# assayTarget: Acetylcholinesterase (AChE, E.C. 3.1.1.7, from human erythrocytes) (Homo sapiens)
# Construct: Acetylcholinesterase (AChE, E.C. 3.1.1.7, from human erythrocytes); purchased Sigma-Aldrich (Steinheim, Germany); host or cells: human erythrocytes (natural source)
# protocolText: AChE inhibition (Ellman method)
# Assay type: biochemical
propertyName: IC50 (µM)

| molecule | endpointResult |
| --- | --- |
| COc1cc(O)cc(O)c1C(=O)/C=C/c1ccccc1 | 67.9 |
| C=CC(C)(C)c1cc(/C=C/C(=O)c2ccc(O)cc2)c(OC)cc1O | 23.4 |

* * *

# protocolText: DPPH radical-scavenging activity assay
# details: samples dissolved in MeOH (stock 2 × 10^−3 M); 60 min; mean ± SD
// DPPH Radical Scavenging (%) after 60 min lookup, one value per entry

| compound | DPPH Radical Scavenging (%) after 60 min |
| --- | --- |
| COc1cc(O)cc(O)c1C(=O)/C=C/c1ccccc1 | 1.33 |
| COc1ccc(/C=C/C(=O)c2c(O)cc(OC)cc2OC)cc1 [HCH, 2′-hydroxy-4,4′,6′-trimethoxychalcone] | 0.35 |
| CC(C)=CCc1c(O)ccc(C(=O)/C=C/c2ccc(O)cc2)c1O | 1.03 |
| C=CC(C)(C)c1cc(/C=C/C(=O)c2ccc(O)cc2)c(OC)cc1O | 29.60 |
| COc1cc(O)c(CC=C(C)C)c(O)c1C(=O)/C=C/c1ccc(O)cc1 | 6.72 |

* * *

# assayTarget: Acetylcholinesterase (AChE, E.C. 3.1.1.7, from human erythrocytes) (Homo sapiens, UniProt P22303)
# Construct: Acetylcholinesterase (AChE, E.C. 3.1.1.7, from human erythrocytes); purchased Sigma-Aldrich (Steinheim, Germany); host or cells: human erythrocytes (natural source)
# Sequence (P22303 32-617 isoform P22303-2 limits assumed): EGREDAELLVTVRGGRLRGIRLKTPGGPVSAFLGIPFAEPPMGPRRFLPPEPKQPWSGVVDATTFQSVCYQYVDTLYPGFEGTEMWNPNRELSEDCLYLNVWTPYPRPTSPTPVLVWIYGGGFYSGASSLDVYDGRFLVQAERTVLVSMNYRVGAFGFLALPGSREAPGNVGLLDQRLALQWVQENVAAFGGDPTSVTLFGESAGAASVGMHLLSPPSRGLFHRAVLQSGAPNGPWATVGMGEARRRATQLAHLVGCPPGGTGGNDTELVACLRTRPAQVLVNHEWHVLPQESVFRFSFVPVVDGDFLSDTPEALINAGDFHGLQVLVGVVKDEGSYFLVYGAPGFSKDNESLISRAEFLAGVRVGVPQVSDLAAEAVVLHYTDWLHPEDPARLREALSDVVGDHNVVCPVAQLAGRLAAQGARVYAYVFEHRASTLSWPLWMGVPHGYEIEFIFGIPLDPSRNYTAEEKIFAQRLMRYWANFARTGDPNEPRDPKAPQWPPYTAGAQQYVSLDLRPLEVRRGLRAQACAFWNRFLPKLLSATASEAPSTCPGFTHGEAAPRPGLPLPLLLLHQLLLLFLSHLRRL
# protocolText: AChE inhibition (Ellman method)
# Format: biochemical
# details: pH 8 phosphate buffer, 25 °C, n = 9; read-out: AChE IC50 Mean ± SD
# Protocol: The inhibitory activities against AChE and BuChE of the prepared compounds were performed by means of the method previously developed by Ellman et al. using neostigmine as the reference compound [68]. […] Seven different concentrations of the compounds in the range 10^−9–10^−3 M were measured at 412 nm. […] Yellow anion (2-nitro-5-thiobenzoic acid) formation was recorded at 412 nm for 10 min. […] Control and inhibitor readings were corrected with a blank read. […]

| compound | IC50 |
| --- | --- |
| CC(C)=CCc1c(O)ccc(C(=O)/C=C/c2ccc(O)cc2)c1O | 35.5 µM |
| COc1ccc(/C=C/C(=O)c2c(O)cc(OC)cc2OC)cc1 [HCH, 2′-hydroxy-4,4′,6′-trimethoxychalcone] | > 100 µM |
| COc1cc(O)c(CC=C(C)C)c(O)c1C(=O)/C=C/c1ccc(O)cc1 | 40.8 µM |

* * *

# assayTarget: butyrylcholinesterase (BuChE, E.C. 3.1.1.8, from equine serum) (Equus caballus)
# Construct: butyrylcholinesterase (BuChE, E.C. 3.1.1.8, from equine serum); purchased Sigma-Aldrich (Steinheim, Germany); host or cells: equine serum (natural source)
# protocolText: BuChE inhibition (Ellman method)
# Type: biochemical
# details: pH 8 phosphate buffer, 25 °C, n = 9; read-out: BuChE IC50 Mean ± SD
// IC50 lookup, one value per entry
propertyName: IC50

| molecule | endpointResult |
| --- | --- |
| COc1cc(O)c(CC=C(C)C)c(O)c1C(=O)/C=C/c1ccc(O)cc1 [XN, xanthohumol] | 65.8 µM |
| COc1ccc(/C=C/C(=O)c2c(O)cc(OC)cc2OC)cc1 [HCH, 2′-hydroxy-4,4′,6′-trimethoxychalcone] | 76.5 µM |
| CC(C)=CCc1c(O)ccc(C(=O)/C=C/c2ccc(O)cc2)c1O [IBC, isobavachalcone] | 43.1 µM |

* * *

# protocolText: DPPH radical-scavenging activity assay
# details: samples dissolved in DMSO (stock 2 × 10^−3 M); 30 min; mean ± SD, three experiments
# Experimental: 2,2-Diphenylpicrylhydrazyl (DPPH) was purchased from Sigma-Aldrich (Steinheim, Germany). DPPH radical-scavenging activity was determined according to the method described by Brand-Williams et al. using (+)-catechin (Sigma-Aldrich, Steinheim, Germany) as the positive control. […] The absorbance was recorded at 517 nm by s Varian Cary 50 spectrophotometer. […]
// DPPH Radical Scavenging (%) after 30 min lookup, one value per entry

| molecule | DPPH Radical Scavenging (%) after 30 min |
| --- | --- |
| COc1cc(O)c(CC=C(C)C)c(O)c1C(=O)/C=C/c1ccc(O)cc1 | 7.99 |
| Oc1cc(O)c2c(c1)O[C@H](c1ccc(O)c(O)c1)[C@@H](O)C2 [(+)-catechin, reference compound] | 94.14 |
| COc1cc(O)cc(O)c1C(=O)/C=C/c1ccccc1 | 2.09 |
| CC(C)=CCc1c(O)ccc(C(=O)/C=C/c2ccc(O)cc2)c1O | 2.36 |
| COc1ccc(/C=C/C(=O)c2c(O)cc(OC)cc2OC)cc1 [HCH, 2′-hydroxy-4,4′,6′-trimethoxychalcone] | 2.09 |
| C=CC(C)(C)c1cc(/C=C/C(=O)c2ccc(O)cc2)c(OC)cc1O | 29.24 |
